Provide the reported GI50 of each item.
tested on: CAKI-1 renal; experiment: NCI tumour cell line growth inhibition, 48 h

Below, 3 molecules whose answers are already recorded.
CCC1CCc2nc3sc(C(=O)Nc4ccccc4C)c(N)c3cc2C1 (stereo not drawn)	451 nM
CC(=O)[O][Hg][c]1ccccc1	964 nM
COc1ccc2c(c1)[n+](=O)c(C(=O)/C=C/c1cc(OC)c(OC)c(OC)c1)c(C)n2[O-]	26900 nM

Hey, can you go through the list below and give me GI50 for every item?
1. Nc1nc(N)c2nc(CNc3ccc(C(=O)NC(CCCNC(=O)c4ccccc4C(=O)O)C(=O)O)cc3)cnc2n1 (stereo not drawn)
2. O=C(c1ccccc1)c1nc2ccc(C(F)(F)F)cc2[n+]([O-])c1C(F)(F)F
3. CCOC(=O)c1cc2c(n1Cc1ccccc1)-c1oncc1CC2
4. O=C1CCc2c(sc3[nH]c(=S)n(Cc4ccccc4)c(=O)c23)C1
5. COc1ccc(-c2ccc(/C=N/n3c(C)nn(CN4CCN(C)CC4)c3=S)o2)c([N+](=O)[O-])c1

Output:
1. 2.24 nM
2. 30400 nM
3. 3240 nM
4. 2540 nM
5. 24400 nM

###

system: RPMI-8226 leukemia; assay: NCI tumour cell line growth inhibition, 48 h
Please go through the items and note down their TGI.

Examples with answers:
Cc1cc(C)nc(SC2=C(Nc3cccc(Cl)c3C)C(=O)N(Cc3ccccc3)C2=O)n1	> 160 µM
NC(=O)/C=C/NC(=O)/C=N\O	> 100 µM
CCCCCCCN1C(=O)C(O)(c2ccc(C3(O)C(=O)N(CCCCCCC)c4ccccc43)s2)c2ccccc21 (stereo unspecified)	4.69 µM
COc1cc(/C=C/c2cc(/C=C/c3ccc(O)c(OC)c3)oc(=O)c2)ccc1O	> 20.5 µM
Cc1c(C)c(S(=O)(=O)N(CCCN)OCCCN)c(C)c2c1OC(C)(C)C2	> 100 µM

Parameters: items (list). Returns: TGI for each item.
1. COc1ccc2c(c1)CCC1=CC3(CCC12C)SCCS3 (stereo unspecified)
2. CCCCn1sc(=O)n(Cc2ccc(CNC(=O)OCc3ccc4c(Br)cc(Br)c(O)c4n3)cc2)c1=O
3. O=C1C(Cl)=C(Nc2cccc(O)c2)C(=O)N1c1ccccc1Cl
4. NNc1[nH]c(=S)[nH]c1C(N)=O

Output:
["> 10 µM", "> 100 µM", "35.1 µM", "> 100 µM"]

Give me TGI for each of these compounds, listed below.
1. COC1=Nc2ccccc2S(=O)(=O)C=C1
2. CCN1C(=O)N(c2ccccc2)C2NN=c3s/c(=C4\C(=O)N(C(C)C)c5ccccc54)c(=O)n3C21 (stereo unspecified)

Output:
1. 4.81 µM
2. 18 µM

###

Give measured TGI for each item. Keep answers brief.
system: M14 melanoma; assay: NCI tumour cell line growth inhibition, 48 h

These solved cases illustrate the format of a correct answer.
c1ccc(COCC2OC3c4ccccc4COC3C2OCc2ccccc2)cc1 (stereo not given)	> 100 µM
CCOC(=O)/C=C1\c2ccccc2C(=O)N1CC(=O)OCC	> 100 µM
C=CCNC1=C2C[C@@H](C)C[C@@H](OC)[C@H](OC(=O)CN)[C@H](C)/C=C(\C)[C@@H](OC(N)=O)[C@H](OC)/C=C\C=C(/C)C(=O)NC(=CC1=O)C2=O	22.3 µM
S=c1sc2nc(Cl)nc(Cl)c2s1	16.9 µM

Input: Report TGI for `C#Cc1cccc(Nc2nc3ccc([N+](=O)[O-])cc3nc2Nc2cccc(C#C)c2)c1` tested on M14 melanoma.
Output: 0.495 µM
